B1: TFE3 (parent)
chain: ELPNIKREISETEAKALLKERQKK

Variants of: B1
MEASUREMENT DESCRIPTION: protein stability index of a GFP-peptide fusion (GPS, HEK-293T) (PSI 1-6); higher = more stable;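 further: lentivirally expressed fusions sorted by FACS into six bins by GFP to DsRed ratio, PSI derived from sequencing read proportions per bin multiplied by bin number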
ASSAY SETUP: c terminus: a fixed tail appended
Where protein stability index equals or exceeds 4, the correct label is criterion met; where it does not, the label is criterion not met.

[[record]]
mutation_annotation = "T12Q"
discrete_label = "criterion met"

[[record]]
mutation_annotation = "L2S"
discrete_label = "criterion met"

[[record]]
mutation_annotation = "N4G"
discrete_label = "criterion not met"

[[record]]
mutation_annotation = "E11L"
discrete_label = "criterion not met"

[[record]]
mutation_annotation = "K24L"
discrete_label = "criterion not met"

[[record]]
mutation_annotation = "K15D"
discrete_label = "criterion not met"

[[record]]
mutation_annotation = "T12E"
discrete_label = "criterion met"

[[record]]
mutation_annotation = "I5R"
discrete_label = "criterion met"

[[record]]
mutation_annotation = "E20T"
discrete_label = "criterion not met"

[[record]]
mutation_annotation = "K6M"
discrete_label = "criterion not met"

[[record]]
mutation_annotation = "R7Q"
discrete_label = "criterion not met"

[[record]]
mutation_annotation = "L2D"
discrete_label = "criterion met"

[[record]]
mutation_annotation = "L2A"
discrete_label = "criterion met"

[[record]]
mutation_annotation = "A16S"
discrete_label = "criterion not met"

[[record]]
mutation_annotation = "E13C"
discrete_label = "criterion not met"

[[record]]
mutation_annotation = "E8W"
discrete_label = "criterion not met"

[[record]]
mutation_annotation = "S10I"
discrete_label = "criterion not met"

[[record]]
mutation_annotation = "E20N"
discrete_label = "criterion not met"

[[record]]
mutation_annotation = "L2H"
discrete_label = "criterion met"

[[record]]
mutation_annotation = "T12I"
discrete_label = "criterion met"

[[record]]
mutation_annotation = "L18M"
discrete_label = "criterion not met"

